- assay.target: T1, BCMA expressed on multiple myeloma cell lines H929 and MM1S (UniProt Q02223 1-184, limits assumed)
- T1 construct: whole, on cells; Endogenous BCMA on tumour cell lines; also called BMCA; cell surface BCMA
- T1 sequence (looked up): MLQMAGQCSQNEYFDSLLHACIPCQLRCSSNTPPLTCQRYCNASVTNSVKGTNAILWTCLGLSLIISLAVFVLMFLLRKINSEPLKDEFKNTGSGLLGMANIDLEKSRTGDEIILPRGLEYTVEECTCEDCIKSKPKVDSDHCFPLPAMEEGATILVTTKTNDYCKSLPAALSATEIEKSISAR
- test.description: flow cytometry, H929 cells, purified VH-Fc protein, 100nM per the sample name; control anti-hFc-PE Mean 5.41 [B), H929 table]
I'd be grateful if you could share measured Mean FL2-H for these entries.
A bare number is all that is needed in reply.

Challenge: Which Mean FL2-H value belongs to MN7 VH-Fc protein (Fc fusion, VH domain fused to a human IgG1 Fc domain; not shown: human IgG1 Fc domain) EVQLVESGGGLVQPGGSLRLSCAASGFTFSSYAMGWVRQAPGKGPEVVSLISGSGGSTWYDDSVKGRFTISRDNSKNTLYLQMNSLRAEDTAVYYCASPEDMYQTWGQGTLVTVSS ?
Response given: 10.1

Challenge: Look up Mean FL2-H for this binder: MN1 VH-Fc protein (Fc fusion, VH domain fused to a human IgG1 Fc domain; not shown: human IgG1 Fc domain) EVQLVESGGGLVQPGGSLRLSCAASGFTFTAYDMGWVRQAPGKGPEWVSLISSDSGDTWYDDSVKGRFTISRDNSKNTLYLQMNSLRAEDTAVYYCARLGAYSTTYDYWGQGTLVTVSS
Response given: 134

Challenge: Request the reported Mean FL2-H associated with MN8 VH-Fc protein (Fc fusion, VH domain fused to a human IgG1 Fc domain; not shown: human IgG1 Fc domain) EVQLVESGGGLVQPGGSLRLSCAASGFTFSSYAMGWVRQAPGKGPEVVSLISGSGGSTWYDDSVKGRFTISRDNSKNTLYLQMNSLRAEDTAVYYCASPEDAPSYSRWGQGTLVTVSS
Response given: 14

Challenge: For MN5 VH-Fc protein (Fc fusion, VH domain fused to a human IgG1 Fc domain; not shown: human IgG1 Fc domain) EVQLVESGGGLVQPGGSLRLSCAASGFTFSSYAMGWVRQAPGKGPEVVSLISGSGGSTWYDDSVKGRFTISRDNSKNTLYLQMNSLRAEDTAVYYCASREDNMTTWGQGTLVTVSS , what is its reported Mean FL2-H?
Response given: 10.6
